molecular target: Potassium-transporting ATPase (Homo sapiens, UniProt P20648); test: Inhibition of H+/K+ ATPase activity in buffered solution (pH 7.4)
Answer each item with its documented IC50.

Entry under test: COc1c(C)cnc(CCC2(C)Nc3ccccc3S2)c1C (stereo not given) . Its IC50 was 98 µM

Entry under test: COc1c(C)cnc(CCC2(C)Nc3cc(C(F)(F)F)ccc3S2)c1C (stereo not given) . Its IC50 was 24 µM

Entry under test: COc1c(C)cnc(/C=C/C2(C)Nc3ccccc3S2)c1C (stereo not given) . Its IC50 was > 100 µM

Entry under test: COc1c(C)cnc(CCC2(C)Nc3cc(Cl)ccc3S2)c1C (stereo not given) . Its IC50 was > 100 µM

Then there is this molecule:
Entry under test: COc1c(C)cnc(CCC2(C)Nc3cc(F)ccc3S2)c1C (stereo not given) . Its IC50 was 33 µM
